assay.overview: Acute toxicity in ip dosed BALB/c mouse after 30 days
Assay type: organism-based
assay.conditions: BALB/c, in vivo

>  <smiles.string>
CC(=O)N[C@H]1CC[C@H]2[C@@H]3NC(=O)C=C4C[C@@H](OC(=O)CCCc5ccc(N(CCCl)CCCl)cc5)CC[C@]4(C)[C@H]3CC[C@]12C

>  <LD50 at 720 h (mg/kg)>
180

$$$$
>  <smiles.string>
CC(=O)N[C@H]1CC[C@H]2[C@@H]3NC(=O)C=C4C[C@@H](OC(=O)c5ccc(C)c(N(CCCl)CCCl)c5)CC[C@]4(C)[C@H]3CC[C@]12C

>  <LD50 at 720 h (mg/kg)>
280

$$$$
>  <smiles.string>
CC(=O)N[C@H]1CC[C@H]2[C@@H]3C(=O)C=C4C[C@@H](OC(=O)Cc5ccc(N(CCCl)CCCl)cc5)CC[C@]4(C)[C@H]3CC[C@]12C

>  <LD50 at 720 h (mg/kg)>
75

$$$$
